- System: Methicillin Resistant Staphylococcus aureus strain USA 300, NRS384
- assay-details: Minimum inhibitory concentration, broth micro-dilution (CLSI), S. aureus
- Assay type: cell-based
- condition-details: Staphylococcus aureus, MRSA / NRS 384 / USA300, 22 h, MRSA USA 300 NRS384; 35° C., 22 hours; read-out: MIC (μg/mL) S. aureus
reported-property: MIC

[
  {
    "molecule": "CCCCCCCC(=O)c1ccc(C(=O)N[C@@H](CCN)C(=O)N(C)[C@@H]2C(=O)N[C@@H](C)C(=O)N[C@H](C(=O)NCC#N)Cc3ccc(OCCN)c(c3)-c3cc2ccc3OCCN)c(Cl)c1 [Compound 413]",
    "study-system": "Methicillin Resistant Staphylococcus aureus strain USA 300, NRS384",
    "observed-measurement": "0.031 µg/mL"
  },
  {
    "molecule": "CCCCCc1ccc(C(=O)N[C@@H](CCN)C(=O)N(C)[C@@H]2C(=O)N[C@@H](C)C(=O)N[C@H](C(=O)NCC#N)Cc3ccc(OCCN)c(c3)-c3cc2ccc3OCCN)c(C2CC2)c1 [Compound 229]",
    "study-system": "Methicillin Resistant Staphylococcus aureus strain USA 300, NRS384",
    "observed-measurement": "0.047 µg/mL"
  },
  {
    "molecule": "CCCCCCCc1ccc(C(=O)N[C@@H](CCN)C(=O)N(C)[C@@H]2C(=O)N[C@@H](C)C(=O)N[C@H](C(=O)NCC#N)Cc3ccc(OCCN)c(c3)-c3cc2ccc3OCCN)c(C(F)(F)F)c1 [Compound 191]",
    "study-system": "Methicillin Resistant Staphylococcus aureus strain USA 300, NRS384",
    "observed-measurement": "0.031 µg/mL"
  }
]

====

- study-system: SpsB (Staphylococcus aureus signal peptidase) (Staphylococcus aureus)
- Construct: This assay uses a suspension of Staphylococcus aureus cells as a source of SpsB instead of recombinant SpsB protein; endogenous in cells; host or cells: S. aureus, USA300 background, overexpressing SpsB (whole-cell suspension from frozen pellets)
- Sequence (P0A070 whole entry): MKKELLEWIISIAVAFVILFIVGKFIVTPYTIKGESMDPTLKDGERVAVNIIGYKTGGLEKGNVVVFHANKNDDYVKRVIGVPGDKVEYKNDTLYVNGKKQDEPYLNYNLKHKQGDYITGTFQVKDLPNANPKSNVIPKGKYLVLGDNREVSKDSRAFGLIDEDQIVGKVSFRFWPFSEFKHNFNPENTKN
- assay-details: cell-based
- Type: biochemical
- condition-details: SpsB IC50, whole-cell S. aureus (USA300 background, overexpressing SpsB) as SpsB source; fluorogenic peptide substrate, kinetic read 30 min
pIC50: −log10 of the molar value.
reported-property: pIC50

[
  {
    "chemical-structure": "CCCCCCCCCC(=O)N[C@@H](CO)C(=O)N(C)[C@@H]1C(=O)N[C@@H](C)C(=O)N[C@H](C(=O)NCC#N)Cc2ccc(OCCN)c(c2)-c2cc1ccc2OCCN",
    "study-system": "SpsB (Staphylococcus aureus signal peptidase) (Staphylococcus aureus)",
    "observed-measurement": 8.62
  },
  {
    "chemical-structure": "CCCCCCCCCC(=O)N[C@@H](C)C(=O)N[C@@H](CCN)C(=O)N(C)[C@@H]1C(=O)N[C@@H](C)C(=O)N[C@H](C(=O)NCC#N)Cc2ccc(OCCN)c(c2)-c2cc1ccc2OCCN",
    "study-system": "SpsB (Staphylococcus aureus signal peptidase) (Staphylococcus aureus)",
    "observed-measurement": 9.06
  },
  {
    "chemical-structure": "CCCCCCCCc1ccc(C(=O)N[C@@H](CCCN)C(=O)N(C)[C@@H]2C(=O)N[C@@H](C)C(=O)N[C@H](C(=O)NCC#N)Cc3ccc(OCCN)c(c3)-c3cc2ccc3OCCN)cc1",
    "study-system": "SpsB (Staphylococcus aureus signal peptidase) (Staphylococcus aureus)",
    "observed-measurement": 9.25
  },
  {
    "chemical-structure": "CCCCCCCCCC(=O)NCC(=O)N(C)[C@@H]1C(=O)N[C@@H](C)C(=O)N[C@H](C(=O)NCC#N)Cc2ccc(OCCN)c(c2)-c2cc1ccc2OCCN",
    "study-system": "SpsB (Staphylococcus aureus signal peptidase) (Staphylococcus aureus)",
    "observed-measurement": 8.49
  },
  {
    "chemical-structure": "CCCCCCCCCC(=O)N[C@H](CCC)C(=O)N[C@@H](CCN)C(=O)N(C)[C@@H]1C(=O)N[C@@H](C)C(=O)N[C@H](C(=O)NCC#N)Cc2ccc(OCCN)c(c2)-c2cc1ccc2OCCN",
    "study-system": "SpsB (Staphylococcus aureus signal peptidase) (Staphylococcus aureus)",
    "observed-measurement": 9.09
  }
]
